Target: 5'-methylthioadenosine/S-adenosylhomocysteine nucleosidase (Escherichia coli O157:H7, UniProt P0AF14)
Sequence (P0AF14 whole entry): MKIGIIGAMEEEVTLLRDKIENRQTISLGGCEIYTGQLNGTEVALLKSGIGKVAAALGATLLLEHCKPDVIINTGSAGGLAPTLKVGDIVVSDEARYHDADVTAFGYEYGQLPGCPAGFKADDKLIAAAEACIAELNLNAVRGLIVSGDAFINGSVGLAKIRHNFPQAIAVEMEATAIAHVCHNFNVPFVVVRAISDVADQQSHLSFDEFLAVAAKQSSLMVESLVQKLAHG
pKi: −log10 of the molar value.

>  <compound>
Nc1ncnc2c([C@@H]3N[C@H](CSCCC(N)C(=O)O)[C@@H](O)[C@H]3O)c[nH]c12 (stereo partly specified)

>  <pKi>
8.77

$$$$

Reference for the values: ChEMBL document CHEMBL1147703
